system: JAK1 (aa 850-1154, catalytic domain, GST-tag) (Homo sapiens, UniProt P23458)
Construct: JAK1 (aa 850-1154) and TYK2 (aa 871-1187) are expressed with an N-terminally fused GST-tag; GST (N); purchased Carna Biosciences, Inc; host or cells: baculovirus expression system
Sequence (P23458 850-1154): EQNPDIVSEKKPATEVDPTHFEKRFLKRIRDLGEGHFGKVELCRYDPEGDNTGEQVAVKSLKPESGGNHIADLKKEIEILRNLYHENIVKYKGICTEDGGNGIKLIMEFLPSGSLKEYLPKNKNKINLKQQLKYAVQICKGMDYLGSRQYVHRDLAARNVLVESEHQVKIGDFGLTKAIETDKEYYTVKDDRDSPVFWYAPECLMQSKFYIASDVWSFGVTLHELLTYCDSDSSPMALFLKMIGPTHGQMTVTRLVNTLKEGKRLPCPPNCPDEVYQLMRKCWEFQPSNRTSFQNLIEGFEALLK
assay_method_text: JAK kinase assay (HTRF, phosphorylation of TK substrate-biotin), JAK1
Format: biochemical
assay_context: HTRF assay, ATP at Km (7 μM); read-out: JAK1 kinase inhibitory activity (EC50 indicator)
measurement_type: EC50

The following molecules have reported results that may help.
O=C(c1cnc2ccccc2n1)N1CCN(c2ncnc3[nH]cc(Cl)c23)CC12CC2 [Example 317] | > 500 nM
CS(=O)(=O)c1ccc(C(=O)N2CCN(c3ncnc4[nH]ccc34)CC23CC3)cc1F [Example 370] | < 100 nM
COCCNS(=O)(=O)c1ccc(C(=O)N2CCN(c3ncnc4[nH]ccc34)CC23CC3)cc1 [Example 396] | < 100 nM

Please turn your attention to the following entry.
Write down EC50 measured for item N#CCc1cccc(CC(=O)N2CCN(c3ncnc4[nH]cc(Cl)c34)CC23CC3)c1 [Example 318] > 500 nM
